TEST SUMMARY: in vitro
PARTICULARS: human, Caco-2, pH 7.4
MEASURED ATTRIBUTE: efflux ratio at 2 h, 3 μM

Worked examples, 5 molecules total:
[
  {
    "MOLECULAR STRING": "[2H]C([2H])([2H])NC(=O)c1nnc(NC(=O)C2CC2)cc1Nc1ccc(F)c(-c2cnn(C)c2)c1OC",
    "efflux ratio at 2 h, 3 μM": 1
  },
  {
    "MOLECULAR STRING": "[2H]C([2H])([2H])NC(=O)c1nnc(NC(=O)C2CC2)cc1Nc1cc(F)cc(-c2cnc(C3(O)CCC3)cn2)c1OC",
    "efflux ratio at 2 h, 3 μM": 1
  },
  {
    "MOLECULAR STRING": "[2H]C([2H])([2H])NC(=O)c1nnc(NC(=O)C2CC2)cc1Nc1cccc(-c2ccns2)c1OC",
    "efflux ratio at 2 h, 3 μM": 1.1
  },
  {
    "MOLECULAR STRING": "[2H]C([2H])([2H])NC(=O)c1nnc(NC(=O)C2CC2)cc1Nc1cccc(-c2noc(CCF)n2)c1OC",
    "efflux ratio at 2 h, 3 μM": 0.7
  },
  {
    "MOLECULAR STRING": "[2H]C([2H])([2H])NC(=O)c1nnc(NC(=O)C2CC2)cc1Nc1cccc(-c2cnc(OC)cn2)c1OC",
    "efflux ratio at 2 h, 3 μM": 0.6
  }
]

A = [2H]C([2H])([2H])NC(=O)c1nnc(NC(=O)C2CC2)cc1Nc1cc(F)cc(-c2cnc(C3CC3)cn2)c1OC
B = [2H]C([2H])([2H])NC(=O)c1nnc(NC(=O)C2CC2)cc1Nc1nccc(-c2cnn(C)c2C)c1OC
C = [2H]C([2H])([2H])NC(=O)c1nnc(NC(=O)C2CC2)cc1Nc1nccc(-c2cnc(C(C)(C)O)cn2)c1OC
IN: Arrange the 3 molecules by rising efflux ratio at 2 h, 3 μM, starting with the smallest. # format: label list in the order the request specifies
OUT: A, B, C
(A: 0.5, B: 0.9, C: 2.9)

a = [2H]C([2H])([2H])NC(=O)c1nnc(NC(=O)C2CC2)cc1Nc1cc(F)cc(-c2cocn2)c1OC
b = [2H]C([2H])([2H])NC(=O)c1nnc(NC(=O)C2CC2)cc1Nc1cccc(-c2cnsc2)c1OC
IN: Could you kindly indicate whether a or b has the higher efflux ratio at 2 h, 3 μM value? Answer by quoting the chosen item's label.
OUT: b
(b: 0.9, a: 0.4)
